# system-name: UNC-105h (Caenorhabditis elegans, UniProt Q09274)
# Construct: isoform h cDNA in KSM vector, Xenopus laevis oocytes, homomeric channel (trimer by known biology)
# Sequence (Q09274 whole entry, canonical isoform): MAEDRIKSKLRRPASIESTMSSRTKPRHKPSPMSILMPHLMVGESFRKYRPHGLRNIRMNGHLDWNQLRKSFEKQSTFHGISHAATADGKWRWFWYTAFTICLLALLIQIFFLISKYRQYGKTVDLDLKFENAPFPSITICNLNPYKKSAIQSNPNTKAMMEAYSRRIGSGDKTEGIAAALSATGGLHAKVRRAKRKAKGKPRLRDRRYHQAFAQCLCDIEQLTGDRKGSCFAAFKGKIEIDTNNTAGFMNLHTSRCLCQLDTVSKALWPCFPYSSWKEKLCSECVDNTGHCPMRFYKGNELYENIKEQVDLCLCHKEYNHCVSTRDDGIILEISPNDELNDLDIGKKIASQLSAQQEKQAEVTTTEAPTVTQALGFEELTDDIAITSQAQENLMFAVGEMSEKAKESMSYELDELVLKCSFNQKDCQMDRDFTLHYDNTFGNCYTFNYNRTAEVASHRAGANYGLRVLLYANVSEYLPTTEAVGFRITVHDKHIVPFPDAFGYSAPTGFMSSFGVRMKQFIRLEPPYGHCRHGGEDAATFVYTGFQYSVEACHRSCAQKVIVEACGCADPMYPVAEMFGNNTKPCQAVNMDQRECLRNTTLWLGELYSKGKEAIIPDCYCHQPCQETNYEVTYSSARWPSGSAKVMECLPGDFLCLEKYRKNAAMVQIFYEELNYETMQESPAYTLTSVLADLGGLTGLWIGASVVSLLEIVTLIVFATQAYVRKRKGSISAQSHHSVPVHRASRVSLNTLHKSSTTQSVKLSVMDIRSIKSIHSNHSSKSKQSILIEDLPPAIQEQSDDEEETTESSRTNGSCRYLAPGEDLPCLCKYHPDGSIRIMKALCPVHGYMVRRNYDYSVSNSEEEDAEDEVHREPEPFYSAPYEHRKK
# experiment-description: two-electrode voltage clamp, Xenopus oocytes
# cond: pH 7.4, -60 mV, ND96, room temperature; paradoxical biphasic response, low-concentration inhibition
measure: pIC50
The quantity pIC50 is defined as the negative base-10 logarithm of the molar concentration.

Task: GET /values?readout=pIC50&item= N=C(N)NC(=O)c1nc(Cl)c(N)nc1N [amiloride]
Result: 6.12

----------
# system-name: ASIC-1 (Caenorhabditis elegans)
# Construct: full-length cDNA in KSM vector, Xenopus laevis oocytes, homomeric channel (trimer by known biology)
# Sequence (O01635 whole entry): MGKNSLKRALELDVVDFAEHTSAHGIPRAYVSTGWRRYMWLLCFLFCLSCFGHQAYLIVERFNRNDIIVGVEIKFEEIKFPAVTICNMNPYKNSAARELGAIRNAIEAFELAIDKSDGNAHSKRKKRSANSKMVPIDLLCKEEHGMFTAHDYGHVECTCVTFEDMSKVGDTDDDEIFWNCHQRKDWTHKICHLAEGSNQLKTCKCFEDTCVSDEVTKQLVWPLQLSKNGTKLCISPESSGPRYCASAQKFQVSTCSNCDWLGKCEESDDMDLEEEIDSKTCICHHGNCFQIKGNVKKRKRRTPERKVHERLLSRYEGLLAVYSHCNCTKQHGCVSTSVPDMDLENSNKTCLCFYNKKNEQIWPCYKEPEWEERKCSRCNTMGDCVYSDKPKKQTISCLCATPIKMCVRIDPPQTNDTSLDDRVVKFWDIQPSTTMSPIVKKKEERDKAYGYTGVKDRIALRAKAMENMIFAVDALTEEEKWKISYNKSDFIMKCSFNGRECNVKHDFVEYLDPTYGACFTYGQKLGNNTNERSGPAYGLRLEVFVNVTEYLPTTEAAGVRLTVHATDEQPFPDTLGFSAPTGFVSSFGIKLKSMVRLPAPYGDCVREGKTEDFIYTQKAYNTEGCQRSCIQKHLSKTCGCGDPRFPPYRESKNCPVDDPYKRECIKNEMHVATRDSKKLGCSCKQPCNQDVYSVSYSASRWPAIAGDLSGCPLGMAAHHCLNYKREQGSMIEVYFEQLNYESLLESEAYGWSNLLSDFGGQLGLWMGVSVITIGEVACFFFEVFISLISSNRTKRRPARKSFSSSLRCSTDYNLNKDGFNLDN
# experiment-description: two-electrode voltage clamp, Xenopus oocytes
measure: pIC50
The quantity pIC50 is defined as the negative base-10 logarithm of the molar concentration.

Task: GET /values?readout=pIC50&item= N=C(N)NC(=O)c1nc(Cl)c(N)nc1N [amiloride]
Result: 3.97
